Reported IC50 is given for each of the following compounds.
test system: KB; experiment: Cytotoxicity against human KB cells; assay type: functional, cell-based; settings: Homo sapiens, KB

# compound, measurementKind, result
data = [
    ("CCCCCCCCCCCC[C@@H](O)[C@H]1CC[C@H]([C@H](O)CCCC[C@H](O)CCCCC[C@H](CC2=C[C@@](C)(O)OC2=O)OC(C)=O)O1", "IC50", "> 10 µg/mL"),
    ("CCCCCCCCCCCC[C@@H](O)[C@H]1CC[C@H]([C@H](O)CCCCCCCCCC[C@@H](O)CC2=C[C@@](C)(O)OC2=O)O1", "IC50", "< 1 µg/mL"),
    ("CCCCCCCCCCCCCC[C@H](O)[C@@H](O)CC[C@H](O)[C@@H]1CC[C@@H](CCCCC[C@@H](O)CC2=C[C@@](C)(O)OC2O)O1 (stereo not given in full)", "IC50", "10 µg/mL"),
]

Kindly state the measured IC50 obtained for "CCCCCCCCCCCCCC[C@H](O)[C@@H]1C[C@@H](O)[C@@H]([C@@H](O)CC[C@@H](O)CCCCC[C@@H](O)CC2=C[C@H](C)OC2=O)O1" with KB.
> 10 µg/mL

Kindly state the measured IC50 obtained for "CCCCCCCCCCCC[C@@H](O)[C@H](O)CC[C@@H](O)[C@H](O)CCCC[C@H](O)CCCCC[C@H](CC1=C[C@@](C)(O)OC1=O)OC(C)=O" with KB.
> 10 µg/mL

Kindly state the measured IC50 obtained for "CCCCCCCCCCCC[C@H](O)[C@H](O)CC[C@H](O)[C@@H]1CC[C@@H](C[C@H](O)CCCCC[C@@H](O)CC2=C[C@@](C)(O)OC2=O)O1" with KB.
> 10 µg/mL

Kindly state the measured IC50 obtained for CCCCCCCCCCCC[C@H](O)[C@H]1CC[C@H]([C@H](O)CC(O)CCCCCCCCCC(=O)CCC2=C[C@H](C)OC2=O)O1 (stereo not given in full) with KB.
> 10 µg/mL

Kindly state the measured IC50 obtained for "CCCCCCCCCCCCCCCC[C@@H](O)[C@H](O)CCCCCCCCCCCCCCC1=C[C@H](C)OC1=O" with KB.
> 10 µg/mL

Kindly state the measured IC50 obtained for CCCCCCCCCCCC[C@@H](O)[C@H]1CC[C@H]([C@H](O)CC(O)CCCCCCCCCC(=O)CCC2=C[C@H](C)OC2=O)O1 (stereo not given in full) with KB.
> 10 µg/mL

Kindly state the measured IC50 obtained for CCCCCCCCCCCCCC[C@H](O)[C@H]1CC[C@H]([C@@H](CC(O)CCCCCCCCCCC2=C[C@H](C)OC2=O)OC(C)=O)O1 (stereo not given in full) with KB.
> 10 µg/mL

###

test system: MCF7; test: Cytotoxicity against human MCF7 cells; format: functional; details: Homo sapiens, MCF7; read-out: ED50 (the source's name)
measurementKind: log10(EC50) (log10 of the value in µg/mL)
// stored as log10 of EC50 expressed in µg/mL

A selection of reference data follows.
# molecule, testTarget, numericValue
records = [
    ("CCCCCCCCCC[C@H](O)[C@@H]1CC[C@@H]([C@@H]2CC[C@@H]([C@@H](O)CCC(O)CCCCCCCCC[C@@H](O)CC3=C[C@H](C)OC3=O)O2)O1 (stereo partly specified)", "MCF7", -2.40),
    ("CCCCCCCCCCCC/C=C\\CC[C@@H](O)[C@H]1CC[C@H]([C@H](O)CC[C@H](O)CCCCC[C@H]2CC(CC(C)=O)C(=O)O2)O1 (mixture of isomers)", "MCF7", 0.57),
    ("CCCCCCCCCCCC[C@@H](O)[C@H]1CC[C@H]([C@H](O)CCC(O)CCCC(O)CCC[C@@H](O)CC2=C[C@H](C)OC2=O)O1 (stereo partly specified)", "MCF7", 0.28),
    ("CCCCCCCCCCCC[C@H](O)[C@@H]1CC[C@H]([C@H](O)CCCCCC(O)CCCCCCC2=C[C@H](C)OC2=O)O1 (stereo partly specified)", "MCF7", 0.23),
    ("CCCCCCCCCC[C@H](O)[C@H]1CC[C@H]([C@H](O)CCCCCC(O)CCCCCCC2CC(CC(C)=O)C(=O)O2)O1 (mixture of isomers)", "MCF7", -2.96),
]

Could you share which log10(EC50) value was measured for "CCCCCCCCCCCC[C@H](O)[C@H](O)CC[C@H](O)[C@@H]1CC[C@@H](C[C@H](O)CCCCC[C@@H](O)CC2=C[C@H](C)OC2=O)O1" ?
-0.52
